# System: CAKI-1 renal
# assay procedure: NCI-60 one-dose screen, 48 h
# condition summary: 10 µM unless noted
# Procedure: Growth inhibition of the CAKI-1 human tumor cell line is measured as a screen for anti-cancer activity. Cells are grown in 96 well plates and exposed to the test compound for 48 hours. Compounds are tested at a single concentration, which is 10^-5 M for most compounds. The reported endpoint is percent growth (GI% or GIPRCNT), where numbers from 0 - 100% represent growth inhibition, and numbers from -100% - 0 represent cell death. For example, a value of 40 represents 60% growth inhibition. […]
The panel holds about 83,000 compounds, 20% with a hit somewhere; the sample as a whole holds those more often. The source made the active and inactive calls. The calls were made as follows: active = growth percent below 10; inactive = the rest.
Valid outcomes are listed here; reply with one: Y = active, N = inactive

The following molecules have reported results that may help.
O=C1/C(=C\c2coc3ccccc3c2=O)c2ccccc2N1c1c(Cl)cccc1Cl | Y
CCOc1cc(CCNS(=O)(=O)c2ccc(C)cc2)c(C(C)=O)cc1OCC | N
CC1CN(/N=C/c2ccc([N+](=O)[O-])o2)C(=N)O1 (stereo not drawn) | N
Cc1ccc(-c2c3c(N)nc(-c4ccncc4)nc3nc3c2c(C)nn3-c2ccccc2)cc1 | N
COc1cc(/C=C2\CN(C)CC3=C2Nc2nc(SC)[nH]c(=O)c2C3c2cc(OC)c(OC)c(OC)c2)cc(OC)c1OC (stereo not drawn) | N

Tell me the assay call for `COc1ccc(CC(=O)Nc2nn3c(-c4cc(C(F)(F)F)cc(C(F)(F)F)c4)nnc3s2)cc1` please. N

Query: recorded result category for `COc1ccc(CNC(=O)c2c(C)n([O-])c3cc(F)c(F)cc3[n+]2=O)cc1` in this test N

Dear all, I need the recorded test outcome for COc1cc2c(cc1OC)C(CC1(O)CCCCC1)N(S(=O)(=O)c1ccc(C)cc1)CC2 (stereo not drawn) , thank you. N

---

# System: HS 578T breast
# assay procedure: NCI-60 one-dose screen, 48 h (100 = growth as untreated, 0 = no growth, -100 = all killed)
# condition summary: 10 µM unless noted
# Procedure: Growth inhibition of the HS 578T human tumor cell line is measured as a screen for anti-cancer activity. Cells are grown in 96 well plates and exposed to the test compound for 48 hours. Compounds are tested at a single concentration, which is 10^-5 M for most compounds. The reported endpoint is percent growth (GI% or GIPRCNT), where numbers from 0 - 100% represent growth inhibition, and numbers from -100% - 0 represent cell death. For example, a value of 40 represents 60% growth inhibition. […]
About 83,000 compounds went through this panel and 20% of them were active in at least one assay; those are over-represented in the sample as a whole. Active and inactive are the calls of the source. How the source made its calls: active means growth percent below 10; inactive means the rest.
property measured: growth

Worked cases, answers included:
C/C(=C\CCc1ccsc1)CC/C=C(\C)CCCN1CCSCC1 | 93.2% (inactive)
CCCCCc1c(C)[nH]c(/C=C2\N=C(c3ccc[nH]3)C=C2Oc2ccccc2)c1C | -7.4% [100 µM] (active)
[N-]=[N+]=NCc1cccc(/C(O)=C/C(=O)C(=O)O)c1 | 82.6% (inactive)
CCOc1cc(/C=C/C(=O)CC(=O)/C=C/c2ccc(OC(=O)CNCCN(CC)CC)c(OCC)c2)ccc1OC(=O)CNCCN(CC)CC | 1.48% (active)
c1ccc(COc2ccc(Nc3ncnc4c3cnn4-c3ccccc3)cc2)cc1 | 109% (inactive)

Item: `COC(=O)c1cc2oc(/C=N\NC(=O)c3cc4oc(C)c(C)c4[nH]3)cc2[nH]1` | System: HS 578T breast | growth: 108% (inactive)

Measured on HS 578T breast, `COc1ccc2c(=O)c(OC)c(-c3cc(OC)c(OC)c(OC)c3)oc2c1` has a documented growth of 91.9% (inactive)

Param item: C=C1CC[C@@H]2[C@](C)(COC(C)=O)[C@H](OC(C)=O)CC[C@@]2(C)[C@@H]1CC(NCc1ccccc1)C1=CCOC1=O (stereo partly drawn) ; param system: HS 578T breast; output growth: 86.4% (inactive)

meta.source: PubChem BioAssay (NCI)
